- protocolDetails: Minimum cytotoxic concentration was determined
- conditionLabel: human
# MCC values compiled below

// worked examples, MCC included
Consider the molecule shown here: Nc1ncnc2c1ncn2C1O[C@H](/C=C/C#CI)[C@@H](O)[C@H]1O (some centres not stated) What is its recorded MCC?
≥ 50 µM

Consider the molecule shown here: C#C/C=C\[C@H]1OC(n2cnc3c(N)ncnc32)[C@H](O)[C@@H]1O (some centres not stated) What is its recorded MCC?
≥ 350 µM

Consider the molecule shown here: O=c1ccn(C2O[C@H](/C=C/C#CI)[C@@H](O)[C@H]2O)c(=O)[nH]1 (some centres not stated) What is its recorded MCC?
≥ 50 µM

Consider the molecule shown here: CCOC(=O)/C=C\C#C[C@H]1OC(n2cnc3c(N)ncnc32)[C@H](O)[C@@H]1O (some centres not stated) What is its recorded MCC?
≥ 11 µM

Consider the molecule shown here: C#C/C=C/[C@H]1OC(n2ccc(=O)[nH]c2=O)[C@H](O)[C@@H]1O (some centres not stated) What is its recorded MCC?
≥ 350 µM

Consider the molecule shown here: C#C/C=C\[C@H]1OC(n2ccc(=O)[nH]c2=O)[C@H](O)[C@@H]1O (some centres not stated) What is its recorded MCC?
≥ 350 µM

More entries:
Consider the molecule shown here: C#C/C=C/[C@H]1OC(n2cnc3c(N)ncnc32)[C@H](O)[C@@H]1O (some centres not stated) What is its recorded MCC?
≥ 350 µM

====

- Test system: Cytomegalovirus
- protocolDetails: Activity against CMV (AD-169 strain) was determined
- Format: functional, organism-based
- conditionLabel: Human betaherpesvirus 5
experimentalReadout: EC50 (µM)
The reply should be a number in µM, with the unit left off.

Form field: EC50 recorded for C#C/C=C/[C@H]1OC(n2cnc3c(N)ncnc32)[C@H](O)[C@@H]1O (stereo partly specified) with Cytomegalovirus (enter value)
50

====

- System: Human immunodeficiency virus 2
- protocolDetails: Inhibition concentration required to inhibit ROD strain was determined by MT-4/MTT assay
- Format: functional, organism-based
# pIC50 values compiled below
pIC50 (log units): -log10 of the concentration in mol/L.

Consider the compound shown here: Nc1ncnc2c1ncn2C1O[C@H](/C=C/C#CI)[C@@H](O)[C@H]1O (some centres not stated) What is its recorded pIC50?
5.96

More entries:
Consider the compound shown here: O=c1ccn(C2O[C@H](/C=C/C#CI)[C@@H](O)[C@H]2O)c(=O)[nH]1 (some centres not stated) What is its recorded pIC50?
5.74

====

- studyTarget: Adenosylhomocysteinase (Homo sapiens, UniProt P23526)
- Sequence (P23526 whole entry): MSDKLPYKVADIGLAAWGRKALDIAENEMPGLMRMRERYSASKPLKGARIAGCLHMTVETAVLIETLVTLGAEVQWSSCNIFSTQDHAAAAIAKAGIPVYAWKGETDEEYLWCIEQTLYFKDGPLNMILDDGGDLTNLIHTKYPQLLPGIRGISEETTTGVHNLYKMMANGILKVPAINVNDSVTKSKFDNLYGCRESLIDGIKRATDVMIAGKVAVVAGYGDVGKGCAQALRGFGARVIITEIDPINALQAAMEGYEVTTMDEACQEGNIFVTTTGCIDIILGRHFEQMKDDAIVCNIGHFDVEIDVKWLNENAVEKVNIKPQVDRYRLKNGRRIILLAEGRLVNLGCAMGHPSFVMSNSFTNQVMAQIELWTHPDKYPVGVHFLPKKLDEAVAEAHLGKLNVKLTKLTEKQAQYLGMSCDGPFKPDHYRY
- protocolDetails: Inhibition of recombinant Placental Adenosylhomocysteinase
experimentalReadout: pKi
pKi (log units): -log10 of the concentration in mol/L.

Consider the molecule shown here: C#C/C=C/[C@H]1OC(n2cnc3c(N)ncnc32)[C@H](O)[C@@H]1O (stereo partly specified) What is its recorded pKi?
6.26

====

- studyTarget: Adenosylhomocysteinase (Homo sapiens, UniProt P23526)
- protocolDetails: Inhibition of recombinant human placental AdoHcy hydrolase
experimentalReadout: Ki
Note to self: number, then unit, no commentary.

Consider the compound shown here: Nc1ncnc2c1ncn2C1O[C@H](/C=C/C#CI)[C@@H](O)[C@H]1O (stereo partly specified) What is its recorded Ki?
118 µM

====

# pIC50 values compiled below
- System: Human immunodeficiency virus 1
- protocolDetails: Inhibition concentration required to inhibit HIV-IIIB was determined by MT-4/MTT assay
- Format: functional, organism-based
pIC50 (log units): -log10 of the concentration in mol/L.

Consider the compound shown here: Nc1ncnc2c1ncn2C1O[C@H](/C=C/C#CI)[C@@H](O)[C@H]1O (some centres not stated) What is its recorded pIC50?
5.96

Consider the compound shown here: O=c1ccn(C2O[C@H](/C=C/C#CI)[C@@H](O)[C@H]2O)c(=O)[nH]1 (some centres not stated) What is its recorded pIC50?
5.74
